# TARGET_SYSTEM: Alpha-2A adrenergic receptor (Homo sapiens)
# Sequence (P08913 whole entry): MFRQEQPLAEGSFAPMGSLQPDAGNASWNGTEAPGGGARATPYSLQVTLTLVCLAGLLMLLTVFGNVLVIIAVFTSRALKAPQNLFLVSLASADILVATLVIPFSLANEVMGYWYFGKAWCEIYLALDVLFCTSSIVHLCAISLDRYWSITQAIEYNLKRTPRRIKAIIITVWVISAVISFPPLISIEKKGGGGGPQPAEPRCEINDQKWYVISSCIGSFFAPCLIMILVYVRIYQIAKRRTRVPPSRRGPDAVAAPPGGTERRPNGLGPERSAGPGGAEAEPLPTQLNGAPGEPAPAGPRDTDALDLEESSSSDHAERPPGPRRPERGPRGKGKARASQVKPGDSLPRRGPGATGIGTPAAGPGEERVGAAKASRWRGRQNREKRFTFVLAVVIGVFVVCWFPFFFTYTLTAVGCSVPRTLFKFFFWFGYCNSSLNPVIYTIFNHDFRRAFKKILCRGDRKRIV
# PROTOCOL_DESCRIPTION: Agonistic activity towards human Alpha-2A adrenergic receptor was measured as ability to inhibit forskolin-stimulated synthesis of cyclic adenosine monophosphate
# Assay type: functional
PARAMETER: EC50 (nM)
Give your result in nM as a bare value.

Example entries begin here.
COMPOUND: c1ccc2c(c1)CCCC2NC1=NCCCO1 (stereo not given)
PARAMETER: EC50
MEASURED_RESULT: 229
--
COMPOUND: C1CCCC(NC2=NCCO2)CC1
PARAMETER: EC50
MEASURED_RESULT: 38
--
COMPOUND: C1COC(NC(C2CC2)C2CC2)=N1 [RILMENIDINE]
PARAMETER: EC50
MEASURED_RESULT: 275
--
COMPOUND: c1ccc2c(c1)CCCC2NC1=NCCO1 (stereo not given)
PARAMETER: EC50
MEASURED_RESULT: 1.17

Turning now to a further record.
INPUT: Return EC50 for the following compound: CCC[C@H]1CCCCC1NC1=NCCO1 (stereo not given in full)
OUTPUT: 1.62

* * *

Each entry below carries its reported Ki.
# TARGET_SYSTEM: Alpha-2A adrenergic receptor (Homo sapiens)
# Sequence (P08913 whole entry): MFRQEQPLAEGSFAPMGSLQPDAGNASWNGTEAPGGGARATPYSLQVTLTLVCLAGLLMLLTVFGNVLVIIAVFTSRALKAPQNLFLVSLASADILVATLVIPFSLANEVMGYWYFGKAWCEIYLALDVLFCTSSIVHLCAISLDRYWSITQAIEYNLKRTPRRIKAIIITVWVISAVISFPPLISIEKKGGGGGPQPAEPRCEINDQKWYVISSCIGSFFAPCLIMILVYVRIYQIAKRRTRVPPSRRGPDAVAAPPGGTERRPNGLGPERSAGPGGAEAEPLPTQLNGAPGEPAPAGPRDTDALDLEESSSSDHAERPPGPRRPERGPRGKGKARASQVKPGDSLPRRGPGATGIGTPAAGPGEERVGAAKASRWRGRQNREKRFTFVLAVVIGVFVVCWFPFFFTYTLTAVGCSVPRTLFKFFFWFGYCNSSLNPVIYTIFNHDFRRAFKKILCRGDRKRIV
Dear colleague, please return just the value in nM, with no unit written.

Known results for compounds:
COMPOUND: c1ccc2c(c1)CCCC2NC1=NCCO1 (centres undefined)
PARAMETER: Ki
MEASURED_RESULT: 2.34
--
COMPOUND: C1COC(N2CCOCC2)=N1
PARAMETER: Ki
MEASURED_RESULT: 16600
--
COMPOUND: C1CCCC(NC2=NCCO2)CC1
PARAMETER: Ki
MEASURED_RESULT: 5.37

Please find the next compound below.
INPUT: Return Ki for the following compound: CCC[C@H]1CCCCC1NC1=NCCO1 (some centres undefined)
OUTPUT: 2.95

* * *

What follows is a record of pKi for Alpha-1A adrenergic receptor (Homo sapiens, UniProt P35348).
On this scale, pKi is minus log10 of a concentration expressed in M (mol/L).

Consider the following illustrative entries.
COMPOUND: c1ccc2c(c1)CCCC2NC1=NCCO1 (stereo not given)
TARGET_SYSTEM: Alpha-1A adrenergic receptor (Homo sapiens, UniProt P35348)
Sequence (P35348 whole entry): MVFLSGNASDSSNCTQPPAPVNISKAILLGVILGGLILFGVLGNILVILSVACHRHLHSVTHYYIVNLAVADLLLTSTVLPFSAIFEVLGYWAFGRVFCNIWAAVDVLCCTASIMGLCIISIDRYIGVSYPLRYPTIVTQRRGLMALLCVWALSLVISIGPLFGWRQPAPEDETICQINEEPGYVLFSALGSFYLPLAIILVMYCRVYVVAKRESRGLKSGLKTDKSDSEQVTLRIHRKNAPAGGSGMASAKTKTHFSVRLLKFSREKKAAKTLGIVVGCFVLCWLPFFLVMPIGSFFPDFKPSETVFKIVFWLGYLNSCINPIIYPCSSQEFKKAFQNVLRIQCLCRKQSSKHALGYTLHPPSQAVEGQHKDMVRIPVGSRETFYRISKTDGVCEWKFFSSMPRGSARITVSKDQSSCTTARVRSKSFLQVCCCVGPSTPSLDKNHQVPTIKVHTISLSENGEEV
PARAMETER: pKi
MEASURED_RESULT: 6.90

COMPOUND: C1COC(NC(C2CC2)C2CC2)=N1
TARGET_SYSTEM: Alpha-1A adrenergic receptor (Homo sapiens, UniProt P35348)
PARAMETER: pKi
MEASURED_RESULT: 5.22

COMPOUND: C1CCCC(NC2=NCCO2)CC1
TARGET_SYSTEM: Alpha-1A adrenergic receptor (Homo sapiens, UniProt P35348)
PARAMETER: pKi
MEASURED_RESULT: 5.70

COMPOUND: C1COC(N2CCOCC2)=N1
TARGET_SYSTEM: Alpha-1A adrenergic receptor (Homo sapiens, UniProt P35348)
PARAMETER: pKi
MEASURED_RESULT: 3.97

In the following, a different compound is considered.
INPUT: Under Alpha-1A adrenergic receptor (Homo sapiens, UniProt P35348), report pKi for CCC[C@H]1CCCCC1NC1=NCCO1 (stereo not given in full)
OUTPUT: 6.85

* * *

# TARGET_SYSTEM: UniProt P18825
# Sequence (P18825 whole entry): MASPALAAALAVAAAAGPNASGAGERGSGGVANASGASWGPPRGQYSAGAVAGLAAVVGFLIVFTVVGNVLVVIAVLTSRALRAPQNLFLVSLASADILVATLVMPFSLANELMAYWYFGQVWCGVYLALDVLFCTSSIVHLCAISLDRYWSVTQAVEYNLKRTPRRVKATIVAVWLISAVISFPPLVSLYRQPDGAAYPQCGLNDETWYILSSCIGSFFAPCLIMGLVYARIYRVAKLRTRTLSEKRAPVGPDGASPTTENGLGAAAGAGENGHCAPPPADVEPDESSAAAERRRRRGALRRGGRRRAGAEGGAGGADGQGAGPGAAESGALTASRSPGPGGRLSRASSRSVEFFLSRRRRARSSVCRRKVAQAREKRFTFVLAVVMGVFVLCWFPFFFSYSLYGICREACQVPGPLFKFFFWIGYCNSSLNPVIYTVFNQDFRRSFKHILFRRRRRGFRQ
# PROTOCOL_DESCRIPTION: Agonistic activity towards human Alpha-2C adrenergic receptor was measured as ability to inhibit forskolin-stimulated synthesis of cyclic adenosine monophosphate
Attribute: pEC50
In simple prose, pEC50 is minus the logarithm base ten of a concentration in moles per litre.

Completed entries (count: 3):
COMPOUND: c1ccc2c(c1)CCCC2NC1=NCCCO1 (stereo not given)
MEASURED_RESULT: 7.61
--
COMPOUND: CCC[C@H]1CCCCC1NC1=NCCO1 (stereo not given in full)
MEASURED_RESULT: 8.39
--
COMPOUND: C1CCCC(NC2=NCCO2)CC1
MEASURED_RESULT: 7.11

INPUT: Print UniProt P18825 pEC50 for c1ccc2c(c1)CCCC2NC1=NCCO1 (stereo not given) .
OUTPUT: 8.66

INPUT: Find the measured pEC50 of "C1COC(NC(C2CC2)C2CC2)=N1" with UniProt P18825 as test system.
OUTPUT: 6.72

* * *

# TARGET_SYSTEM: Alpha-1D adrenergic receptor (Homo sapiens)
# Sequence (P25100 whole entry): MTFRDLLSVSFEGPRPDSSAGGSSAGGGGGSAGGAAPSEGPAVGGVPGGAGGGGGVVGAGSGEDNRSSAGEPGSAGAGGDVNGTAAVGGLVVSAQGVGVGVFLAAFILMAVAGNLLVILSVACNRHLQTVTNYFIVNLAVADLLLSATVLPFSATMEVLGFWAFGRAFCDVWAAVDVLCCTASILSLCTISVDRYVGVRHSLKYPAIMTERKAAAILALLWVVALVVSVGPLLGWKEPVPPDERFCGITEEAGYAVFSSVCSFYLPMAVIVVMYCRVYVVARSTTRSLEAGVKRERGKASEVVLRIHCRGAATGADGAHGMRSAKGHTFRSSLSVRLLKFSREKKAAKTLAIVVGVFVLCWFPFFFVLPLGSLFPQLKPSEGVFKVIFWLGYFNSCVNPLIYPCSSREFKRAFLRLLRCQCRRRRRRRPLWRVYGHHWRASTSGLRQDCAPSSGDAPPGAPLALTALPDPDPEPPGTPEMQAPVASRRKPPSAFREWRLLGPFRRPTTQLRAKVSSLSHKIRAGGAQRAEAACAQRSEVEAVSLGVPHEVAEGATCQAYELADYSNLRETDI
PARAMETER: Ki (µM)
A number alone suffices; assume µM.

MOLECULE: CCC[C@H]1CCCCC1NC1=NCCO1 (some centres undefined)
MEASURE_UNIT: µM
Ki: 0.562
--
MOLECULE: c1ccc2c(c1)CCCC2NC1=NCCO1 (centres undefined)
MEASURE_UNIT: µM
Ki: 0.204
--
MOLECULE: C1COC(N2CCOCC2)=N1
MEASURE_UNIT: µM
Ki: 120

Okay, next one:
INPUT: Please report the measured Ki for "C1COC(NC(C2CC2)C2CC2)=N1"
OUTPUT: 8.91

* * *

# TARGET_SYSTEM: Alpha-2B adrenergic receptor (Homo sapiens, UniProt P18089)
# Sequence (P18089 whole entry): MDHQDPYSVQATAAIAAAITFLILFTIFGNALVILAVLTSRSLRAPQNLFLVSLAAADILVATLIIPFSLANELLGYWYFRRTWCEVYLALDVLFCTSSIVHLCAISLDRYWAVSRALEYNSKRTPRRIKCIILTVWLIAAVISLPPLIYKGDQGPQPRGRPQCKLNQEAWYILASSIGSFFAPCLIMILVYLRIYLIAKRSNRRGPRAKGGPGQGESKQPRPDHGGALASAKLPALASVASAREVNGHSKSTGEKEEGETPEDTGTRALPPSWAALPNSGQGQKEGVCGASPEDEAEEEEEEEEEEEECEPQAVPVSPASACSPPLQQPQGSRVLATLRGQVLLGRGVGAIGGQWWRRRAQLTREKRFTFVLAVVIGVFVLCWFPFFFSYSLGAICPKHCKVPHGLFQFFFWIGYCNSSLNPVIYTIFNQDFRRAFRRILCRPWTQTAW
# PROTOCOL_DESCRIPTION: Agonistic activity towards human Alpha-2B adrenergic receptor was measured as ability to inhibit forskolin-stimulated synthesis of cyclic adenosine monophosphate
# Assay type: functional
PARAMETER: pEC50
Lab note — pEC50 values are minus log10 of concentrations in M.

Solved cases (4 shown):
COMPOUND: c1ccc2c(c1)CCCC2NC1=NCCCO1 (stereo not given)
pEC50: 7.46
//
COMPOUND: CCC[C@H]1CCCCC1NC1=NCCO1 (stereo not given in full)
pEC50: 8.03
//
COMPOUND: C1CCCC(NC2=NCCO2)CC1
pEC50: 6.67
//
COMPOUND: C1COC(NC(C2CC2)C2CC2)=N1
pEC50: 6.14

From here, focus on the item given below.
INPUT: # return recorded pEC50 for input c1ccc2c(c1)CCCC2NC1=NCCO1 (stereo not given)
OUTPUT: 8.45
